The measured values listed here are drawn from patent US20210230570.

Biological target: plasma purified human antithrombin III (AT-III) in complex with full-length unfractionated heparin (UFH)
RECORDED METRIC: K0.5-mut/K0.5-wt

INSERT INTO assay_data (protein, recorded_metric, reported_measurement) VALUES
  ('FIXa R318Y/R338E/E410S (protein) chain 1: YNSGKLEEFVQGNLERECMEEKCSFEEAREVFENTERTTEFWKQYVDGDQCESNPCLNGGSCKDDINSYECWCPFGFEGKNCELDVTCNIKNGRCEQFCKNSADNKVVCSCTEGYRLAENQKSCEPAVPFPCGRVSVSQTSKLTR chain 2: VVGGEDAKPGQFPWQVVLNGKVDAFCGGSIVNEKWIVTAAHCVETGVKITVVAGEHNIEETEHTEQKRNVIRIIPHHNYNAAINKYNHDIALLELDEPLVLNSYVTPICIADKEYTNIFLKFGSGYVSGWGRVFHKGYSALVLQYLRVPLVDRATCLESTKFTIYNNMFCAGFHEGGRDSCQGDSGGPHVTEVEGTSFLTGIISWGEECAMKGKYGIYTKVSRYVNWIKSKTKLT', 'K0.5-mut/K0.5-wt', '279 fold');
